- Experimental protocol: CREB reporter modulators under forskolin, primary screen, cell-based, PC12, CRE-LacZ reporter, forskolin-stimulated (AID 1146);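 further: PC12 cells with 6xCRE LacZ reporter stimulated by forskolin 10 µM; beta-galactosidase reporter signal reflecting CREB driven transcription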
- Measurement setup: luminescence, 4.5 h, higher = more signal, called active from +8 up or from −8 down
# class assignment by measured z-score: low class: < -0.06; middle class: ≥ -0.06 and < 0.5; high class: ≥ 0.5

Answered cases to consult:
Compound	Label class
C=C(/C(=C/C[C@H](OC(=O)c1ccncc1)c1ccc(OCCO)cc1)c1cnc2ccccc2c1)C(C)C	low class
COC(=O)[C@]1(CO)N=C(c2ccc(OCCCO)cc2)O[C@@H]1c1ccccc1N=[N+]=[N-]	low class
CCN1C(=O)[C@H]2[C@H]3[C@H](O)[C@H](O)CC(=NOC[C@@H](C)[C@H](OCc4ccccc4)C(C)C)[C@@H]3CC[C@H]2C1=O	middle class

For `COc1ccc(O[C@H]2C=C[C@@H](c3ccccc3)O[C@@H]2COC(=O)CCC(C)=NO[C@H](C)c2cn([C@@H]3COC[C@H]3O)nn2)cc1` , which z-score bin applies?
high class

For `C[C@@H](c1ccccc1)N1C(=O)[C@H]2[C@H]3[C@H](O)C=CC(=O)[C@@H]3CC[C@H]2C1=O` , which z-score bin applies?
low class

For `COC(=O)CC=C[C@H](C)[C@@H](OCc1ccccc1Br)C(C)C` , which z-score bin applies?
high class

For O=C1CCCC=C1C(O)CCOCc1ccccc1 (stereo not given) , which z-score bin applies?
middle class

For `CO[C@H]1COC(=O)[C@@H]2CCCN2C(=O)[C@@H](C)COC(=O)CC=C[C@@H]1C` , which z-score bin applies?
middle class

###

- Experimental protocol: MM1S cell viability effects, profiling panel, calcein-AM fluorescence, 48 h, basal (AID 1165);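 further: viability of MM1S multiple myeloma cells under basal unstimulated conditions; test concentration not given here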
- Measurement setup: higher = more signal
Attribute measured: z-score
API doc: respond with a numeric literal and nothing else, no unit.

Compound	z-score
C[N+](C)(C)CCCCCCNC(=O)[C@@H]1C[C@@H]2C(=O)N3CCC[C@H]3C(=O)N2[C@@H]1c1cccc(OCCO)c1	0.826
Cc1ccc(S(=O)(=O)N[C@@H]2COC(=O)[C@H](C)COC(=O)CC=C[C@H]2C)cc1	0.228
CC(CCN1CCCCc2nc(C)c(C)cc21)=NOC(C)CN1CCCCc2nc(C)c(C)cc21 (centres undefined)	-2.33
C#C[C@@H]1Oc2ccccc2S(=O)(=O)N2CCC[C@H]12	0.0671
COc1ccc(O[C@H]2C=C[C@@H](c3ccccc3)O[C@@H]2COC(=O)CCC(C)=NOC(C)CN2CCCCc3nc(C)c(C)cc32)cc1 (some centres undefined)	-1.35
COC(=O)c1c(CC[C@@H](CO)NC(=O)N[C@H](Cc2ccccc2)Cn2cc(-c3ccccc3N)nn2)oc(C(C)=O)c1C(=O)OC	-0.0234
O=C1[C@H]2[C@H]3[C@H](O)[C@H](O)CC(=NOC[C@@H](O)COCc4ccco4)[C@H]3CC[C@H]2C(=O)N1c1cccc(Oc2ccccc2)c1	0.511
O=C1O[C@@H](c2ccccc2)[C@@H](c2ccccc2)N2[C@@H](c3ccc(O)cc3)[C@]3(C(=O)Nc4ccccc43)[C@@H](C(=O)O)[C@H]12	-1.33

# z-score lookup, item `CC[C@@H](c1ccccc1)n1c(=O)n2n(c1=O)[C@H]1[C@H](O)[C@@H]3O[C@@H]3C(=NOCC=C(C)CCC=C(C)C)[C@H]1CC2`
-3.08

# z-score lookup, item Cn1cccc1C(O)C1C=CC2C(=O)NC(=O)C2N1Nc1ccccn1 (centres undefined)
-1.99

# z-score lookup, item `O=C1[C@H]2[C@H]3[C@H](O)[C@H](O)CC(=NO[C@@H]4O[C@H](CO)[C@@H](O)[C@H](O)[C@H]4O)[C@@H]3CC[C@H]2C(=O)N1Cc1ccc2c(c1)OCO2`
-0.778

# z-score lookup, item `CC(CCC(=O)OC[C@H]1O[C@H](C#Cc2ccccc2)C=C[C@@H]1Oc1ccc(C)cc1)=NO[C@@H](C)c1cn([C@H](CO)Cc2ccccc2)nn1`
-0.622

# z-score lookup, item CCOc1ccc(N2C(=O)/C(=C/C=C/c3ccccc3OC)S(=O)(=O)C2c2cccc([N+](=O)[O-])c2)cc1 (centres undefined)
-2.72

# z-score lookup, item `O=C1O[C@@H](c2ccccc2)[C@@H](c2ccccc2)N2[C@@H](c3ccc(OCCO)cc3)[C@]3(C(=O)Nc4ccccc43)[C@@H](C(=O)N3CCN(c4ncccn4)CC3)[C@H]12`
-0.138

###

# z-score annotations
- Experimental protocol: MM1S cell viability effects, profiling panel, calcein-AM fluorescence, 48 h, basal (AID 1165);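 further: viability of MM1S multiple myeloma cells under basal unstimulated conditions; test concentration not given here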
- Measurement setup: higher = more signal
API doc: respond with a numeric literal and nothing else, no unit.

# example entries with known answers
Compound	Quantitative result
[N-]=[N+]=NCc1ccccc1[C@@H]1OC(c2ccc(OCCCO)cc2)=N[C@]1(Cc1ccccc1)C(=O)N1CCOCC1	-1.2
CCOC(=O)CCN1C(=O)[C@H]2[C@H]3[C@H](O)[C@H](O)CC(=NOC[C@@H](O)COCc4ccco4)[C@H]3CC[C@H]2C1=O	-2.09

# z-score lookup, item `C=CCNC(=O)[C@H]1[C@@H]2C(=O)O[C@@H](c3ccccc3)[C@@H](c3ccccc3)N2[C@@H](c2ccc(O)cc2)[C@]12C(=O)N(C(=O)OCCOC)c1ccc(C#CC3=CCCCC3)cc12`
-2.53

# z-score lookup, item `CC(C)=CCCC(C)=CCON=C1[C@H]2CCn3c(=O)n(Cc4cc5c(cc4Cl)OCO5)c(=O)n3[C@H]2[C@H](O)[C@@H]2O[C@H]12`
-0.918

# z-score lookup, item Cc1ccc(C2CC=C(C(=O)O)CN2S(=O)(=O)c2ccc(C)cc2)cc1 (configuration not stated)
-1.07

# z-score lookup, item `C[C@@H]1C=CCC(=O)OC[C@H](C)C(=O)N[C@@H](C)C(=O)OC1`
-0.131

# z-score lookup, item `C[C@@H]1C=CCC(=O)OC[C@H](C)C(=O)N2CCC[C@H]2C(=O)OC1`
0.13

###

- Experimental protocol: PSAC antagonists in infected red cells, primary screen, cell-based, P. falciparum Indochina, OD700, 2 h (AID 1155);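 further: lysis reports solute entry through the parasite surface anion channel PSAC; channel blockers reduce lysis of infected cells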
- Measurement setup: P. falciparum Indochina infected erythrocytes, osmotic lysis OD700; higher = more signal, called active from +8 up or from −8 down
# z-score annotations
API doc: respond with a numeric literal and nothing else, no unit.

Molecule	z-score
CCN1C(=O)[C@H]2[C@H]3[C@H](O)[C@H](O)CC(=NOC(C)CN4CCCCc5nc(C)c(C)cc54)[C@@H]3CC[C@H]2C1=O (stereo partly specified)	0.15
COCCNC(=O)OCC1CCCC2(CC(OC(=O)NCCc3ccc(F)cc3)CC(CCC(=O)N[C@@H](C)C(=O)OC)O2)O1 (stereo partly specified)	-0.61
C=CC[C@@H]1C=C[C@H](ON=Cc2ccc(C(=O)N3[C@H](c4ccc(C)cc4)[C@@H](C)CC[C@H]3C(=O)OC)cc2)[C@@H](CO)O1	0.852
O=C1[C@H]2[C@H]3[C@H](O)[C@H](O)CC(=NO[C@@H]4O[C@H](CO)[C@@H](O)[C@H](O)[C@H]4O)[C@H]3CC[C@H]2C(=O)N1Cc1ccccc1	0.117
CO[C@@H]1COC(=O)[C@@H]2CCCN2C(=O)[C@@H](C)COC(=O)[C@H](COCc2ccccc2)NC(=O)CC=C[C@H]1C	0.367

Consider now this further molecule.
# z-score lookup, item `O=C(NN=C1C[C@@H](O)[C@@H](O)[C@@H]2[C@@H]3C(=O)N(c4ccc(F)cc4F)C(=O)[C@@H]3CC[C@@H]12)OCc1ccccc1`
0.326

###

- Experimental system: Dickkopf-related protein 1 (Homo sapiens) (UniProt O94907)
- Sequence (O94907 whole entry, looked up): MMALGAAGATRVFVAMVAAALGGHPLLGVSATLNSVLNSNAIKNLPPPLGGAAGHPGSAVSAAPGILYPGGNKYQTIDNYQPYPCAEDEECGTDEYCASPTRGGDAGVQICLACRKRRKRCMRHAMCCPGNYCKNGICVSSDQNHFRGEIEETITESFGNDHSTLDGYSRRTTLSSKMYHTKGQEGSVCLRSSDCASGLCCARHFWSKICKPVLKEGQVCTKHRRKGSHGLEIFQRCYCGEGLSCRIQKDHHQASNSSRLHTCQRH
- Experimental protocol: DKK1 binders on small-molecule microarrays, primary screen, biochemical, small-molecule microarray, 635 nm fluorescence scan (AID 1106);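 further: score merges emission near 667 nm with signal to noise over three replicate slides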
- Measurement setup: DKK1 binding, higher = more signal
Attribute measured: composite z-score

# example entries with known answers
Compound	composite z-score
CC(CCN1CCCCc2nc(C)c(C)cc21)=NOC(C)CN1CCCc2nc(C)c(C)cc21 (centres undefined)	1.05
CC(=O)OC[C@H]1O[C@@H](ON=C[C@@H](C)[C@H](OCc2ccccc2)C(C)C)[C@H](OC(C)=O)[C@@H](OC(C)=O)[C@@H]1OC(C)=O	-1.22
CCOC(=O)CCN1C(=O)[C@H]2[C@H]3[C@H](O)C=CC(=O)[C@@H]3CC[C@H]2C1=O	0.541

Consider now this further compound.
# composite z-score lookup, item CS(=O)(=O)CCOC(=O)C1=CC(CCCO)=CC(c2cccs2)N(Cc2cccc(OC(F)(F)F)c2)C=C1C(=O)OCCS(C)(=O)=O (centres undefined)
-0.06

###

- Experimental system: Luciferin 4-monooxygenase (Photinus pyralis)
- Experimental protocol: firefly luciferase enzyme inhibitors, primary screen, biochemical, luminescence, purified enzyme, 2006 set (AID 1141);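 further: cell-free assay with purified firefly luciferase at 100 ng per well in PBS; test concentration not given here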
- Measurement setup: SteadyGlo luminescence, 30 min, higher = more signal, called active from +8 up or from −8 down
Classification field: enter true for z-score values not below -0.4, false for values below it.

hey, is z-score for this one >= -0.4? `COC(=O)C1=C(C)N(Cc2ccccc2)[C@]23O[C@](C(=O)OC)(C(=O)N2[C@@H]1c1ccccc1)[C@H]1CCOC(=O)[C@H]13`
false

hey, is z-score for this one >= -0.4? `CCCNC(=O)OC[C@H]1O[C@H](CCON=C2[C@H]3CCn4c(=O)n(-c5ccccc5)c(=O)n4[C@H]3[C@H](O)[C@@H]3O[C@H]23)C=C[C@@H]1Oc1ccc(OC)cc1`
true

hey, is z-score for this one >= -0.4? O=C1NC(=O)C2C1C=CC(C(O)Cc1ccccc1)N2Nc1ccccn1 (stereo not drawn)
false

hey, is z-score for this one >= -0.4? `CC(C)=CCCC(C)=CCON=C1[C@H]2CCn3c(=O)n(C)c(=O)n3[C@H]2[C@H](O)[C@@H]2O[C@H]12`
true

hey, is z-score for this one >= -0.4? `C[C@H](c1ccccc1)N1C(=O)[C@H]2[C@H]3[C@H](O)[C@H](O)CC(=O)[C@@H]3CC[C@H]2C1=O`
true

hey, is z-score for this one >= -0.4? CC(CCN1CCCCc2nc(C)c(C)cc21)=NOC(C)CN1CCCCc2nc(C)c(C)cc21 (stereo not drawn)
false

hey, is z-score for this one >= -0.4? COC(=O)CC1OC1[C@H](C)[C@@H](OC)C(C)C (stereo partly drawn)
false

hey, is z-score for this one >= -0.4? `CCCNC(=O)OC[C@H]1O[C@H](CCON=C[C@@H](OC)[C@H](C)C=CCC(=O)OC)C=C[C@@H]1Oc1ccc(OC)cc1`
true
